target: human recombinant MAO-A (Homo sapiens, UniProt P21397); assay: MAO-GLO luminescence assay of MAO-A catalytic activity; assay type: biochemical; conditions: 1 µM inhibitor concentration; residual activity relative to control without inhibitor; read-out: MAO-A residual activity
Sequence (P21397 whole entry): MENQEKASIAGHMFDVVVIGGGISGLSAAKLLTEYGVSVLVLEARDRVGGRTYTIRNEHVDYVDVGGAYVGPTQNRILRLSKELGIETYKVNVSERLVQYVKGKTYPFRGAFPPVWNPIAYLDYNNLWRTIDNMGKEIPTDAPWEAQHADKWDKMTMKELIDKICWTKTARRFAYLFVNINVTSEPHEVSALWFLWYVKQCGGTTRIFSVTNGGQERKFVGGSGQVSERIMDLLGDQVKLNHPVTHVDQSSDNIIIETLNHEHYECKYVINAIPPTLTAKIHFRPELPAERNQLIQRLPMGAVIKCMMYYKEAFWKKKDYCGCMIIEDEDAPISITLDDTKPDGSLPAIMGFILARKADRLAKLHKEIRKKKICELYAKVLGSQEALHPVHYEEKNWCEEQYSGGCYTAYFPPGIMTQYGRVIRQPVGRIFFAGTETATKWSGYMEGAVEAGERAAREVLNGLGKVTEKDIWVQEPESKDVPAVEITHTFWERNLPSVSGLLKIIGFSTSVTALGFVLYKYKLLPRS
Recorded Metric: remaining activity at 1 µM (%)
Report only the number, with the unit % understood.

CCCCn1c2cc(OC)ccc2c2ccnc(C)c21 [AnnH3] : 10
COc1c(Cl)cc2c([nH]c3c(C)nccc32)c1Cl [AnnH6_3_1] : 64
CCCCn1c2cc(OC)c(Cl)cc2c2ccnc(C)c21 [AnnH14] : 56
COc1ccc2c3ccnc(C)c3n(CCOc3ccccc3)c2c1 [AnnH40] : 30

input: Suppose we examine the molecule COc1ccc2c(c1)[nH]c1c(/C=C/c3ccccc3)nccc12 [AnnH18] ; what remaining activity at 1 µM value has been reported?
output: 100

input: Next molecule: COc1ccc2c(c1)[nH]c1c(C)cccc12 [AnnHOG3, 7-Methoxy-1-methyl-9H-carbazole]
output: 100

input: Next molecule: COc1ccc2c3ccnc(Cl)c3n(CCCN(C)C)c2c1 [AnnH77]
output: 123

input: Next molecule: Cc1nccc2c1C(=O)c1cc(O)ccc1-2 [AnnHT6]
output: 46

input: Next molecule: N#CCn1c2c(Br)nccc2c2ccc(Cl)c(Cl)c21 [AnnH79]
output: 143

input: Next molecule: Cc1nccc2c1[nH]c1c(Cl)c(Cl)ccc12 [AnnH63]
output: 32

input: Next molecule: COc1ccc2c(c1)/C(=C\C#N)c1c-2ccnc1C [AnnHT5]
output: 65

input: Next molecule: Cc1nccc2c1[nH]c1cc(OCCN(C)C)ccc12 [AnnH62]
output: 22

input: Next molecule: COc1ccc2c3ccnc(C)c3n(CCN3CCCC3)c2c1 [AnnH55]
output: 67

input: Next molecule: COc1ccc2c3ccnc(C)c3n(C)c2c1 [AnnH1]
output: 2

input: Next molecule: COc1ccc2c3ccnc(C)c3n(CCCc3ccccc3)c2c1 [AnnH38]
output: 127

input: Next molecule: COc1ccc2c3ccnc(C)c3n(Cc3ccncc3)c2c1 [AnnH36]
output: 19

input: Next molecule: CCOC(=O)Cn1c2cc(OC)ccc2c2ccnc(C)c21 [AnnH12]
output: 101

input: Next molecule: Clc1ccc2c([nH]c3c(Br)nccc32)c1Cl [AnnH52]
output: 118

input: Next molecule: C#CCn1c2cc(OC)ccc2c2ccnc(C)c21 [AnnH44]
output: 22

input: Next molecule: COc1ccc2c3ccnc(C)c3n(Cc3ccccc3)c2c1 [AnnH4]
output: 80

input: Next molecule: COc1ccc2c(c1)C(=O)c1c-2ccnc1C [AnnHT2]
output: 15

input: Next molecule: CCOC(=O)Cn1c2c(C)nccc2c2ccc(Cl)c(Cl)c21 [AnnH66]
output: 78

input: Next molecule: COc1ccc2c3ccnc(C)c3n(CC(=O)OC(C)C)c2c1 [AnnH27]
output: 72

input: Next molecule: CCOC(=O)Cn1c2cc(OC)ccc2c2ccnc(CC)c21 [AnnH88]
output: 137
